system: kochia (Bassia scoparia); assay: Test A1 preemergence, kochia; type: in vivo; settings: 125 g ai/ha, 0 to 100 scale, 0 no effect, 100 complete control
Response field label takes 1 when Plant response rating, Kochia is strictly below 20 and 0 in all other cases.

# input Strictly below 20: is that where Plant response rating, Kochia of Cc1cc(C)c(C2=NOC3(C)CCCC23)cc1NS(=O)(=O)C(F)(F)F (centres unmarked) [Compound 340] sits?
# output 0

# input Strictly below 20: is that where Plant response rating, Kochia of Cc1c(NS(=O)(=O)C(F)(F)F)cc(C2=NOC3(CCCC3)C2)c(C)c1C [Compound 380] sits?
# output 0

# input Strictly below 20: is that where Plant response rating, Kochia of Cc1cc(C)c(N(S(=O)(=O)C(F)(F)F)S(=O)(=O)C(F)(F)F)cc1N1CCC2(CCC(C(F)(F)F)CC2)C1=O (centres unmarked) [Compound 399] sits?
# output 0

# input Strictly below 20: is that where Plant response rating, Kochia of COc1cc(C)c(C2=NOC3(CCCC3)C2)cc1NS(=O)(=O)C(F)(F)F [Compound 304] sits?
# output 1

# input Strictly below 20: is that where Plant response rating, Kochia of Cc1cc(C)c(N(COC(=O)C(C)(C)C)S(=O)(=O)C(F)(F)F)cc1C(=O)N1CCC(F)(F)CC1 [Compound 350] sits?
# output 0

# input Strictly below 20: is that where Plant response rating, Kochia of Cc1c(NS(=O)(=O)C(F)(F)F)cc(C(=O)N2CCOCC2)c(C)c1C [Compound 289] sits?
# output 0

====

tested on: pigweed (Amaranthus retroflexus); assay: Test A postemergence, pigweed; assay type: in vivo; conditions: Postemergence, 500 g ai/ha; visual injury vs untreated controls after approx. 10 days; 0 to 100 scale (0 no effect, 100 complete control)
recorded-metric: Pigweed plant response rating
Give the figure by itself; no unit, no explanation.

# input // fetch Pigweed plant response rating given entry "CCCn1nccc(-c2cc(NS(=O)(=O)C(F)(F)F)c(C)cc2C)c1=O"
# output 0

# input // fetch Pigweed plant response rating given entry "Cc1cc(C)c(-c2ccnn(CC(C)C)c2=O)cc1NS(=O)(=O)C(F)(F)F"
# output 0

# input // fetch Pigweed plant response rating given entry "Cc1cc(C)c(C(=O)N2CCCOCC2)cc1NS(=O)(=O)C(F)(F)F"
# output 90

# input // fetch Pigweed plant response rating given entry "Cc1cc(Cl)c(C2=NOC(C)(C)C2)cc1NS(=O)(=O)C(F)(F)F"
# output 30

# input // fetch Pigweed plant response rating given entry "Cc1cc(F)c(C(=O)N2CCCCC2)cc1NS(=O)(=O)C(F)(F)F"
# output 60

# input // fetch Pigweed plant response rating given entry "COC(=O)N(c1cc(-c2ccnn(C)c2=O)c(C)cc1C)S(=O)(=O)C(F)(F)F"
# output 0

# input // fetch Pigweed plant response rating given entry "Cc1cc(F)c(C(=O)N2CCC(C#N)CC2)cc1NS(=O)(=O)C(F)(F)F"
# output 60

# input // fetch Pigweed plant response rating given entry "Cc1ccc(-c2ccnn(C)c2=O)cc1NS(=O)(=O)C(F)(F)F"
# output 60

====

For each of the compounds below, state its Plant response rating, Barnyardgrass.
test system: barnyardgrass (Echinochloa crus-galli); assay: Test A preemergence, barnyardgrass; type: in vivo; settings: Preemergence, 500 g ai/ha; 0 to 100 scale (0 no effect, 100 complete control)
Give the figure by itself; no unit, no explanation.

# input // fetch Plant response rating, Barnyardgrass given entry "C#CCN(C)C(=O)c1cc(NS(=O)(=O)C(F)(F)F)c(C)cc1C"
# output 100

# input // fetch Plant response rating, Barnyardgrass given entry "Cc1cc(C)c(N(S(=O)(=O)C(F)(F)F)S(=O)(=O)C(F)(F)F)cc1C1=NOC2(CCCC2)C1"
# output 90

# input // fetch Plant response rating, Barnyardgrass given entry Cc1cc(C)c(C2=NOC3CCCCC23)cc1NS(=O)(=O)C(F)(F)F (racemic)
# output 100

# input // fetch Plant response rating, Barnyardgrass given entry "Cc1cc(C)c(N(S(=O)(=O)C(F)(F)F)S(=O)(=O)C(F)(F)F)cc1-c1cc(Cl)nn(C)c1=O"
# output 100

# input // fetch Plant response rating, Barnyardgrass given entry "COC1CCN(C(=O)c2cc(NS(=O)(=O)C(F)(F)F)c(C)c(F)c2C)CC1"
# output 90

# input // fetch Plant response rating, Barnyardgrass given entry "Cc1cc(C)c(N(S(=O)(=O)C(F)(F)F)S(=O)(=O)C(F)(F)F)cc1-c1cn(C)c(=O)n(C)c1=O"
# output 100

# input // fetch Plant response rating, Barnyardgrass given entry "Cc1cc(Cl)c(NS(=O)(=O)C(F)(F)F)cc1C1=NOC2(CCCC2)C1"
# output 90

# input // fetch Plant response rating, Barnyardgrass given entry "C#CCN(CC#C)C(=O)c1cc(NS(=O)(=O)C(F)(F)F)c(C)cc1C"
# output 100
